Known Pre-Emergent herbicidal rating, A Canada Thistle of a selection of molecules
# Test system: Canada Thistle
# assay summary: pre-emergent herbicidal activity test; note: ranges in brackets are in %
# Assay type: in vivo
# condition set: 11.2 Kg/Ha; approximately 28 days after seeding and treating

Known Pre-Emergent herbicidal rating, A Canada Thistle results, listed for orientation:
• CCC(C)OC(=O)c1cn(C)nc1-c1cccc(C(F)(F)F)c1 (stereo not drawn) = 0 (0-24)
• CCOC(=O)c1cn(C)nc1-c1ccc(C(F)(F)F)cc1 = 0 (0-24)
• CCOC(=O)c1cn(CC)nc1-c1cccc(C(F)(F)F)c1 = 1 (25-49)
• CCOC(=O)c1cn(C)nc1-c1cccc(C(F)(F)F)c1 = 0 (0-24)
• CCCCOC(=O)c1cn(C)nc1-c1cccc(C(F)(F)F)c1 = 2 (50-74)

Now for the molecule whose Pre-Emergent herbicidal rating, A Canada Thistle we want.
Query: Dear colleague, I am looking for the recorded Pre-Emergent herbicidal rating, A Canada Thistle of the following molecule: CCOC(=O)c1cn(C)nc1-c1cc(C(F)(F)F)cc(C(F)(F)F)c1
Reply: 0 (0-24)
